- protocol details: Pharmacokinetic assays (plasma and tumor) in nude mice xenografted with MV4-11 cells
- Format: in vivo, mouse
- condition set: nude, mouse, tumor, po, 3 mg/kg, gilteritinib in tumor; gilteritinib 3 mg/kg, AraC 0, IDR 0
attribute measured: Tmax
Put your answer as a value accompanied by its unit after it.

Please fill in: Tmax reported for `CCc1nc(C(N)=O)c(Nc2ccc(N3CCC(N4CCN(C)CC4)CC3)c(OC)c2)nc1NC1CCOCC1` = 2 h

###

- protocol details: Pharmacokinetic assays (plasma and tumor) in nude mice xenografted with MV4-11 cells
- Assay type: in vivo, mouse
- condition set: nude, mouse, plasma, iv, 3 mg/kg, azacitidine in plasma; gilteritinib 3, azacitidine 3 mg/kg
attribute measured: Cmax (ng/mL)
Kindly answer with a numeric value in ng/mL, unit omitted.

Please fill in: Cmax reported for `Nc1ncn([C@@H]2O[C@H](CO)[C@@H](O)[C@H]2O)c(=O)n1` = 3440
